# Test Target: mu opioid receptor (MOR) (Homo sapiens, UniProt P35372)
# Assay Info: PathHunter β-arrestin recruitment assay, PAM mode with EC20 endomorphin-1
# Assay type: cell-based
# Conditions Used: β-arrestin recruitment; read-out: β-arr. EC50

{"Compound": "Oc1ncc(F)c(N2CCCCC2c2cccc(C(F)(F)F)c2)n1 (centres unmarked) [compound 349]", "EC50": "< 700 nM"}
{"Compound": "CC1CCN(S(=O)(=O)c2ccc(Cl)cc2)C1c1ccc(Cl)c(Br)c1 (mixture of isomers)", "EC50": "< 700 nM"}
{"Compound": "OC1CCN(c2nc(Cl)ncc2F)C(c2cc(F)cc(C(F)(F)F)c2)C1 (centres unmarked)", "EC50": "> 2100 nM"}
{"Compound": "Cc1nc(C2CCCCN2c2nc(Cl)ncc2F)no1 (centres unmarked)", "EC50": "< 700 nM"}
{"Compound": "COc1ccc(C2CCCCN2c2ccc(Br)cn2)cc1Br (centres unmarked)", "EC50": "> 2100 nM"}
{"Compound": "Fc1cccc(C2CCCCN2c2nc(Cl)ccc2F)n1 (centres unmarked)", "EC50": "> 2100 nM"}
{"Compound": "COc1ccc(C2N(S(=O)(=O)c3ccc(Cl)cc3)CCC2(F)F)cc1Br (single isomer, unassigned) [Compound 116]", "EC50": "> 2100 nM"}
{"Compound": "OC1CN(c2ncc(F)c(N3CCCCC3c3cccc(C(F)(F)F)c3)n2)C1 (centres unmarked)", "EC50": "> 2100 nM"}
{"Compound": "Cc1cc(C2CCCCN2S(=O)(=O)c2ccc(Cl)cc2)ccn1 (racemic)", "EC50": "> 2100 nM"}
{"Compound": "CC1CCN(S(=O)(=O)c2ccc(Cl)cc2)C1c1ccc2c(c1)CCO2 (mixture of isomers)", "EC50": "> 2100 nM"}
{"Compound": "Fc1cnc(Cl)nc1N1CCCCC1c1cccc(C(F)F)c1 (centres unmarked)", "EC50": "> 2100 nM"}
{"Compound": "Fc1ccc(C2CCCCN2c2ccc(C(F)(F)F)cc2)cc1Cl (centres unmarked)", "EC50": "> 2100 nM"}
{"Compound": "Fc1cnc(Cl)nc1N1CCCCC1c1ccccn1 (centres unmarked)", "EC50": "< 700 nM"}
{"Compound": "FC(F)(F)c1cccc(C2CCCCN2Cc2cccc(Cl)c2)c1 (centres unmarked)", "EC50": "< 700 nM"}
{"Compound": "Cc1cnc(Cl)nc1N1CCCCC1c1cccc(C(F)(F)F)c1 (centres unmarked)", "EC50": "> 2100 nM"}
{"Compound": "Fc1cccc(C2CCCCN2c2cc(Cl)ncc2F)n1 (centres unmarked)", "EC50": "> 2100 nM"}
{"Compound": "O=S(=O)(c1ccc(Cl)cc1)N1CCCCC1c1ccc(Cl)c(C(F)(F)F)c1 (single isomer, unassigned) [compound 220]", "EC50": "> 2100 nM"}
{"Compound": "O=S(=O)(c1cccc(Cl)c1F)N1CCCCC1c1cccc(C(F)(F)F)c1 (centres unmarked)", "EC50": "700 to 2100 nM"}
{"Compound": "COc1ncc(N2CCCCC2c2cccc(F)n2)c(F)n1 (centres unmarked)", "EC50": "> 2100 nM"}
{"Compound": "Fc1cnc(Cl)nc1N1CCCCC1c1ccc(Cl)c(Cl)c1 (centres unmarked)", "EC50": "< 700 nM"}
{"Compound": "COc1ccc(C2CCCCN2c2ncnc(Cl)c2F)cc1Br (centres unmarked)", "EC50": "> 2100 nM"}
{"Compound": "Cc1cc(C2C(C)CCN2S(=O)(=O)c2ccc(Cl)cc2)ccc1F (mixture of isomers)", "EC50": "700 to 2100 nM"}
{"Compound": "Fc1cnc(Cl)nc1N1CCCCC1c1ccc(Cl)c(C(F)(F)F)c1 (single isomer, unassigned) [compound 345]", "EC50": "< 700 nM"}
{"Compound": "O=S(=O)(c1ccc(Cl)cc1)N1CCCCC1c1cc(F)cc(C(F)(F)F)c1 (racemic) [compound 72]", "EC50": "700 to 2100 nM"}
{"Compound": "Fc1ccc(C2CCCCN2c2nc(Cl)ncc2F)cc1Cl (single isomer, unassigned) [compound 11]", "EC50": "< 700 nM"}
{"Compound": "Cc1cccc(S(=O)(=O)N2CCCCC2c2cccc(C(F)(F)F)c2)c1 (centres unmarked)", "EC50": "> 2100 nM"}
{"Compound": "COc1ccc(C2CC(C(F)(F)F)CN2S(=O)(=O)c2ccc(Cl)cc2)cc1Br (single isomer, unassigned) [Compound 120]", "EC50": "> 2100 nM"}
{"Compound": "CC[C@@H]1CCCN(c2nc(Cl)ncc2F)[C@@H]1c1ccc(OC)c(Br)c1 (relative stereo)", "EC50": "> 2100 nM"}
{"Compound": "Cc1nccc(C2CCCCN2c2nc(Cl)ccc2F)n1 (centres unmarked)", "EC50": "< 700 nM"}
{"Compound": "Fc1cccc(CN2CCCCC2c2cccc(C(F)(F)F)n2)c1 (centres unmarked)", "EC50": "> 2100 nM"}
{"Compound": "Fc1cc(C2COCCN2c2nc(Cl)ncc2F)cc(C(F)(F)F)c1 (single isomer, unassigned) [Compound 347]", "EC50": "< 700 nM"}
{"Compound": "Fc1ccc(C2CCCCN2c2cccc(Cl)c2)cc1Cl (centres unmarked)", "EC50": "> 2100 nM"}
{"Compound": "Fc1cnc(N2CCOCC2)nc1N1CCCCC1c1cccc(C(F)(F)F)c1 (centres unmarked)", "EC50": "> 2100 nM"}
{"Compound": "[2H]C1(c2ccc(F)c(Br)c2)C(F)CCCN1Cc1cccc(Cl)c1 (centres unmarked)", "EC50": "> 2100 nM"}
{"Compound": "Fc1ccc(C2C(F)CCCN2c2nc(Cl)ncc2F)cc1Br (centres unmarked) [compound 214]", "EC50": "> 2100 nM"}

###

# Test Target: mu opioid receptor (MOR) (Homo sapiens, UniProt P35372)
# Assay Info: PathHunter β-arrestin recruitment assay, PAM mode with EC20 endomorphin-1
# Type: cell-based
# Conditions Used: β-arrestin recruitment; read-out: β-arr. EC50
pEC50: −log10 of the molar value.

{"Molecule": "Fc1cc(Cl)cc(C2CCCCN2c2nc(Cl)ncc2F)c1 (single isomer, unassigned) [compound 420]", "Test Target": "mu opioid receptor (MOR) (Homo sapiens, UniProt P35372)", "pEC50": "> 6.15"}
{"Molecule": "Fc1ccc(C2CC(F)(F)CCN2c2nc(Cl)ncc2F)cc1Br (stereo not drawn) [compound 246]", "Test Target": "mu opioid receptor (MOR) (Homo sapiens, UniProt P35372)", "pEC50": "5.68 to 6.15"}
{"Molecule": "Fc1cc(C2CCCCN2Cc2cc(Cl)ccc2F)cc(C(F)(F)F)c1 (stereo not drawn) [compound 167]", "Test Target": "mu opioid receptor (MOR) (Homo sapiens, UniProt P35372)", "pEC50": "> 6.15"}
{"Molecule": "Fc1ccc(C2CCCCN2c2nc(Cl)ncc2F)cc1Cl (single isomer, unassigned) [compound 343]", "Test Target": "mu opioid receptor (MOR) (Homo sapiens, UniProt P35372)", "pEC50": "> 6.15"}
{"Molecule": "Fc1cc(C2CSCCN2c2nc(Cl)ncc2F)cc(C(F)(F)F)c1 (racemic) [Compound 301]", "Test Target": "mu opioid receptor (MOR) (Homo sapiens, UniProt P35372)", "pEC50": "5.68 to 6.15"}
{"Molecule": "COc1ccc(C2C3CCC(C3)N2c2nc(Cl)ncc2F)cc1Br (stereo not drawn) [compound 138]", "Test Target": "mu opioid receptor (MOR) (Homo sapiens, UniProt P35372)", "pEC50": "< 5.68"}
{"Molecule": "Cc1cccc(C2CCCCN2c2nc(Cl)ncc2F)n1 (stereo not drawn) [compound 414]", "Test Target": "mu opioid receptor (MOR) (Homo sapiens, UniProt P35372)", "pEC50": "> 6.15"}
{"Molecule": "COc1ccc(C2CCCCN2S(=O)(=O)c2ccn(C)n2)cc1Br (stereo not drawn) [compound 483]", "Test Target": "mu opioid receptor (MOR) (Homo sapiens, UniProt P35372)", "pEC50": "< 5.68"}
{"Molecule": "COc1ccc(C2CCCCN2c2cncc(C(F)(F)F)n2)cc1Br (stereo not drawn) [compound 230]", "Test Target": "mu opioid receptor (MOR) (Homo sapiens, UniProt P35372)", "pEC50": "< 5.68"}

###

# Test Target: MOR (Homo sapiens, UniProt P35372)
# Sequence (P35372 whole entry): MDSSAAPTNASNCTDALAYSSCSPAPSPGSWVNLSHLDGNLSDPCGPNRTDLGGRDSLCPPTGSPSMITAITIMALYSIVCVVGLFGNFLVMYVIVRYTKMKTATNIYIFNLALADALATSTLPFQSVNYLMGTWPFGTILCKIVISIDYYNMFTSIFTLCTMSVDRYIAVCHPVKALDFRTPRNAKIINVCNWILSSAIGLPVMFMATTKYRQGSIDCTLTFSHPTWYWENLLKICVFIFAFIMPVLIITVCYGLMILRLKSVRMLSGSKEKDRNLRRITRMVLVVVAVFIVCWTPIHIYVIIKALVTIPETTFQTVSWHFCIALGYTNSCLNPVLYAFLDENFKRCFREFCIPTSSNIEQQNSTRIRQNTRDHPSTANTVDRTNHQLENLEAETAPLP
# Assay Info: cell-based
# Conditions Used: cAMP; EC20 Oxycodone agonism of MOR

{"Compound": "Fc1cnc(Cl)nc1N1CCCCC1c1cccc(C(F)(F)F)c1 (single isomer, unassigned) [compound 8]", "Max. Response": 56}
{"Compound": "Fc1cnc(Cl)nc1N1CCCCC1c1cccc(C(F)(F)F)c1 (single isomer, unassigned) [compound 9]", "Max. Response": 40}
{"Compound": "Fc1cnc(Cl)nc1N1CCCCC1c1cccc(C(F)(F)F)n1 (centres unmarked) [compound 123]", "Max. Response": 0}
{"Compound": "Fc1ccc(Cl)cc1CN1CCCCC1c1cccc(C(F)(F)F)n1 (centres unmarked) [compound 2]", "Max. Response": 5}
{"Compound": "COc1ccc(C2CCCCN2S(=O)(=O)c2ccc(Cl)cc2)cc1Br (single isomer, unassigned) [compound 6]", "Max. Response": 90}
